measurement.description: NCI Yeast Anticancer Drug Screen. Data for the mlh1 rad18 strain (AID 175)
experimental.setup: S. cerevisiae mlh1 rad18 strain growth inhibition; at 50.0 µM; active compounds read high
This is part of a sample that, as a whole, favours compounds with a hit. Of some 79,000 tested, about 15% had one in any assay.
Kindly state growth inhibition for each of the entries shown.
Reply numerically in %, unit not repeated.

Ask | Determine from records and report growth inhibition for "C#CCn1cnc2c1c(=O)n(C)c(=O)n2C"
Reply | -10.7

Ask | Determine from records and report growth inhibition for "CCOC(=O)C(Cc1ccccc1C)(NC(C)=O)C(=O)OCC"
Reply | -11.2

Ask | Determine from records and report growth inhibition for "CC(C)([NH-])C[NH-].O=C(O)CCO.[Pt+2]"
Reply | 14.2

Ask | Determine from records and report growth inhibition for "CCOC(=O)CCC1CCCCC1"
Reply | 8.15

Ask | Determine from records and report growth inhibition for "Nc1c(S(=O)(=O)O)cc(Nc2cccc(S(=O)(=O)/C=C/S(=O)(=O)O)c2)c2c1C(=O)c1ccccc1C2=O"
Reply | -14.2

Ask | Determine from records and report growth inhibition for Cc1cccc(C(C)(C)C)c1NC(=O)CC1C(=O)Nc2ccccc2S1(=O)=O (configuration not stated)
Reply | 23.9

Ask | Determine from records and report growth inhibition for "O=c1cc[nH]c2cc(C(F)(F)F)ccc12"
Reply | -34

Ask | Determine from records and report growth inhibition for CCOC(=O)N1CCN(P(=O)(Nc2ccc3nc(NC(=O)OC)[nH]c3c2)Oc2ccccc2)CC1 (configuration not stated)
Reply | -37.1

Ask | Determine from records and report growth inhibition for CC(NC(=O)C(C)(C)C)c1ccc2c(c1)OCCO2 (configuration not stated)
Reply | 2.85

Ask | Determine from records and report growth inhibition for CC(=O)C1=CCC(C(C)C)C1 (configuration not stated)
Reply | 2

Ask | Determine from records and report growth inhibition for "COC(=O)C(NC(=O)COc1ccccc1[N+](=O)[O-])C(=O)OC"
Reply | -12.3

Ask | Determine from records and report growth inhibition for CC(C)CN1CC(C)C(=O)NC1=O (configuration not stated)
Reply | 5.4

###

measurement.description: NCI Yeast Anticancer Drug Screen. Data for the bub3 strain (AID 167)
experimental.setup: S. cerevisiae bub3 mutant strain, at 50.0 µM, active compounds read high
The panel holds about 79,000 compounds, 15% with a hit somewhere; the sample as a whole holds those more often.
assay.endpoint: growth inhibition (%)
Reply numerically in %, unit not repeated.

Ask | Determine from records and report growth inhibition for "Cn1c(=O)c2[nH]c(=O)n(C)c2n(C)c1=O"
Reply | 16.5

Ask | Determine from records and report growth inhibition for "COc1cccc(/C=C/c2cc3c(cc2Br)OCO3)c1"
Reply | 1.9

Ask | Determine from records and report growth inhibition for "COc1cc(-c2cc(=O)c3cc4c(=O)cc(-c5cc(OC)c(OC)c(OC)c5)oc4cc3o2)cc(OC)c1OC"
Reply | -7.7

Ask | Determine from records and report growth inhibition for "CCOC(=O)Cn1/c(=N/N=C(\C)c2ccc([N+](=O)[O-])o2)sc2cc(Cl)ccc21"
Reply | -4.15

Ask | Determine from records and report growth inhibition for "c1csc(-c2sc(-c3ccsc3)cc2Cc2ccsc2)c1"
Reply | -26.6

Ask | Determine from records and report growth inhibition for "COC(=O)c1s/c(=N\C(=S)N(C)C)n(-c2ccccc2)c1C(=O)OC"
Reply | -8.85

Ask | Determine from records and report growth inhibition for CC1=C(C(=O)OC2CC3CCC2(C)C3(C)C)C2Nc3ccccc3N(C)C2O1 (centres undefined)
Reply | -8.4

Ask | Determine from records and report growth inhibition for Cc1cccc(C(C)(C)C)c1NC(=O)CC1C(=O)Nc2ccccc2S1(=O)=O (centres undefined)
Reply | 9.5

Ask | Determine from records and report growth inhibition for "NCC(=O)NCCC(=O)O"
Reply | -24.6

Where these numbers come from: PubChem BioAssay (NCI)
